Test: solvent given as SMILES
Settings: in CCCCCC
Recorded emission maximum values for a group of compounds are listed next.
Please respond with the number in nm and leave the unit unwritten.

[
  {
    "compound": "O=S1(=O)C2=C(c3ccc(N(c4ccccc4)c4ccccc4)cc31)C1(C3=C(c4ccccc41)S(=O)(=O)c1cc(N(c4ccccc4)c4ccccc4)ccc13)c1ccccc12",
    "unit-tag": "nm",
    "numeric-value": 521
  }
]

## Task Suppose we examine the compound Cc1cc(C)n2c1C=C1c3ccccc3C(c3[nH]c4ccccc4c3C)=[N+]1[B-]2(F)F ; what emission maximum value has been reported?
## Result 626

## Task Try this compound too: COc1ccc(-c2cc3ccc4cc(-c5ccc(OC)cc5)cc5ccc(c2)c3c45)cc1
## Result 417.26

## Task Try this compound too: CN(C)c1ccc(-c2ccc3n2[B-](F)(F)[N+]2=C(c4ccccc4)C=CC2=C3C(F)(F)F)cc1
## Result 696

## Task Try this compound too: CC(C)c1ccc2ccc3cccc4ccc1c2c34
## Result 376

----------
Assay: solvent given as SMILES
Conditions: in C1CCOC1
hey, just use y if measured emission maximum is less than 500 nm, otherwise n

These solved cases illustrate the format of a correct answer.
[
  {
    "smiles-string": "CCn1c2ccccc2c2cc(-c3cc(-c4ccc5c(c4)c4ccccc4n5CC)nc(-c4ccc(C#N)cc4)n3)ccc21",
    "answer-label": "y"
  },
  {
    "smiles-string": "Nc1ccccc1/C=C/C(F)(F)F",
    "answer-label": "y"
  },
  {
    "smiles-string": "Cc1ccc(C2=C3C=c4c(oc5ccccc45)=[N+]3[B-](F)(F)n3c2cc2c4ccccc4oc23)cc1",
    "answer-label": "n"
  },
  {
    "smiles-string": "CN(C)c1ccc(C(=Cc2ccc(/C=C(\\C#N)c3ccccc3)cc2)c2ccc(N(C)C)cc2)cc1",
    "answer-label": "n"
  },
  {
    "smiles-string": "CC1=N/C(=C\\c2cc(N(C)C)ccc2C#N)C(=O)N1C",
    "answer-label": "n"
  }
]

## Task Input CCn1c2ccccc2c2cc(/C=C/C(=O)c3ccc4c(c3)c3cc(C(=O)/C=C/c5ccc6c(c5)c5ccccc5n6CC)ccc3n4CC)ccc21 ; condition: emission maximum strictly below 500 nm. Does it hold?
## Result y

## Task Try this compound too: C(=C(c1ccccc1)c1ccccc1)c1ccc(-c2ccc(C=C(c3ccccc3)c3ccccc3)cc2)cc1
## Result y

## Task Try this compound too: COc1ccc(-c2cc3ccc4cc(-c5ccc(OC)cc5)cc5ccc(c2)c3c45)cc1
## Result y

## Task Try this compound too: CC(=O)c1ccc(NC(=O)c2ccc(N(C)C)cc2)cc1
## Result y

----------
Experiment: solvent given as SMILES
Conditions: in Cc1ccccc1
hey, just use 1 (yes) if measured emission maximum is less than 400 nm, otherwise 0 (no)

These solved cases illustrate the format of a correct answer.
[
  {
    "smiles-string": "CCCC1=Cc2nc1ccc1[nH]c(cc1CCO)c1nc(ccc3[nH]c2cc3CCC)C(CCO)=C1",
    "answer-label": "0 (no)"
  },
  {
    "smiles-string": "C(#Cc1nc2ccccc2s1)c1ccc(N(c2ccccc2)c2ccccc2)cc1",
    "answer-label": "0 (no)"
  }
]

## Task Input Cc1ccc(C2=C3C=CC(/C=C/c4ccccc4)=[N+]3[B-](F)(F)n3c(/C=C/c4ccccc4)ccc32)cc1 ; condition: emission maximum strictly below 400 nm. Does it hold?
## Result 0 (no)

## Task Try this molecule too: CC1=NN(c2ccccc2)C(=O)/C1=C/c1cn(-c2ccccc2)nc1-c1ccccc1
## Result 0 (no)

## Task Try this molecule too: N#Cc1ccc2c(c1)C1(c3cc(C#N)ccc3-2)c2ccccc2N(c2ccccc2)c2ccccc21
## Result 0 (no)

## Task Try this molecule too: [C-]#[N+]c1ccc(-c2ccc(N)cc2)cc1
## Result 1 (yes)

## Task Try this molecule too: F[B-]1(F)Oc2ccccc2-c2cc(-n3c4ccccc4c4ccccc43)cc[n+]21
## Result 0 (no)

## Task Try this molecule too: CC1(C)c2ccccc2N(c2ccccc2)c2ccc(S(=O)(=O)c3ccc4c(c3)C(C)(C)c3ccccc3N4c3ccccc3)cc21
## Result 1 (yes)
